# Measurement Target: human c-Met receptor on tumor cells (A549, NCI-H441, BxPC3) (human, UniProt P08581 25-1390)
# Assay Protocol: cell-based or functional assay
Value Type: inhibition of HGF-induced proliferation of NCI-H441 cells (Figure 14A) (%)

* [224G11]chim (antibody, human IgG1, V domains shown) VH: EVQLQQSGPELVKPGASVKISCKTSGYIFTAYTMHWVRQSLGESLDWIGGIKPNNGLANYNQKFKGKATLTVDKSSSTAYMDLRSLTSEDSAVYYCARSEITTEFDYWGQGTALTVSS VL: DIVLTQSPASLAVSLGQRATISCRASESVDSYANSFMHWYQQKPGQPPKLLIYRASNLESGIPARFSGSGSRTDFTLTINPVEADDVATYYCQQSKEDPLTFGSGTKLEMKR | 19
* murine 224G11 Mab (antibody, mouse IgG1, V domains shown) VH: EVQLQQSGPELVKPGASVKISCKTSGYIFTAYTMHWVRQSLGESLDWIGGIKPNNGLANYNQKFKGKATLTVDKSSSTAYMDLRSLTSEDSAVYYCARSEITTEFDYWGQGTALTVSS VL: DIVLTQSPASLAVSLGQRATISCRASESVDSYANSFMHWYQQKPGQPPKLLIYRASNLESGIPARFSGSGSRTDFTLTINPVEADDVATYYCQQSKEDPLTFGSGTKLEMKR | 66

# credit: patent WO2010064089A1
